SUBJECT_OF_TEST: USP1 (construct USP1 (I-785, GG670, 671AA)/UAF1 (I-677)-Flag) (Homo sapiens (Human), UniProt O94782, G670A/G671A)
Sequence (O94782 whole entry G670A/G671A): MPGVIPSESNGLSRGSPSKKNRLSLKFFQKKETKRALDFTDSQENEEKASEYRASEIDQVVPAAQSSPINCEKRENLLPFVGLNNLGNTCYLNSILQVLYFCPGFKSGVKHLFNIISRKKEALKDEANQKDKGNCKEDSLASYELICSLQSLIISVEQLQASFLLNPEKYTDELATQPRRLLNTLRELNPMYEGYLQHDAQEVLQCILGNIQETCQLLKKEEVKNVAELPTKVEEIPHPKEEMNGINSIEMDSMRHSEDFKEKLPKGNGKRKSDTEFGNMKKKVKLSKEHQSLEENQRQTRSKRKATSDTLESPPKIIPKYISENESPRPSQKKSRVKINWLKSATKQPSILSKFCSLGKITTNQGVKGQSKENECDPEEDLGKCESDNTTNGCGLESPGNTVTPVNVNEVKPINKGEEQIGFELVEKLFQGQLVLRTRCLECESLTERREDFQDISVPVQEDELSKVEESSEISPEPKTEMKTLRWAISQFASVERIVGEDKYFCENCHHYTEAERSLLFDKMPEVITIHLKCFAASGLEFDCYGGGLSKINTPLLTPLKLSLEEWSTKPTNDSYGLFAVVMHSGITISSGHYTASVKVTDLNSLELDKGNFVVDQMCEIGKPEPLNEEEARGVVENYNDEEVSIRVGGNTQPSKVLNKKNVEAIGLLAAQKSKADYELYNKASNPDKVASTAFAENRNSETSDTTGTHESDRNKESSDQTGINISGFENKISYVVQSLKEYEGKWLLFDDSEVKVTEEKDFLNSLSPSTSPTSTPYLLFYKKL
Sequence (Q8TAF3 whole entry partner): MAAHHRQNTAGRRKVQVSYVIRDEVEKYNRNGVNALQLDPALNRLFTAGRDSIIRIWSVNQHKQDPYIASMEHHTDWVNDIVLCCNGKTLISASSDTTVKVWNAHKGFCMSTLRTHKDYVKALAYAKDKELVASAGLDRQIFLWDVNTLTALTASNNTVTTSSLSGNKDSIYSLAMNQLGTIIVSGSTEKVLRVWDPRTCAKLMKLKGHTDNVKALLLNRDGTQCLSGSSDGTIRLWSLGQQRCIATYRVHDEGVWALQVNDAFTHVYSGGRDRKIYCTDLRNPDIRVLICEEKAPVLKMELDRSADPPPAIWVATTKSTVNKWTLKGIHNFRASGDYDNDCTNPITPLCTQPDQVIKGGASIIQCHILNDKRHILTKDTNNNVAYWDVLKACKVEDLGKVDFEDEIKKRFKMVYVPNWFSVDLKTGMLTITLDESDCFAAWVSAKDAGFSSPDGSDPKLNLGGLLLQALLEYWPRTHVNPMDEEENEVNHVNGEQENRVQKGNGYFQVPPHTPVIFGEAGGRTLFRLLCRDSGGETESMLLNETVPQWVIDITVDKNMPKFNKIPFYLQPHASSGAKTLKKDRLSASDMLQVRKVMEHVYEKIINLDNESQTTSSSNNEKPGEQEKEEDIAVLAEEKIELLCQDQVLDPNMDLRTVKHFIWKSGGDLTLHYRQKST
TEST_DESCRIPTION: Ubiquitin-Rhodamine 110 assay for USP1 activity
CONDITION_DETAILS: USP1/UAF1 25 pM, Ub-Rh110 25 nM, 30 min preincubation
pIC50: −log10 of the molar value.
VALUE_KIND: pIC50

// solved cases for pIC50 follow
1. CCCOc1ccccc1-c1ncc2[nH]c(=O)n(Cc3ccc(-n4cccn4)cc3)c2n1 [Compound I-21] :: 6.70 to 7.30
2. Cc1cc(C)n([C@H]2CC[C@@H](Cn3c(=O)n(C)c4cnc(-c5ccccc5C(C)C)nc43)CC2)n1 [Compound I-111] :: 6.70 to 7.30
3. CC(C)c1ccccc1-c1ncc2c(n1)n(Cc1ccc(-c3nc(C(F)(F)F)n(C)n3)cc1)c(=O)n2C [Compound I-280] :: > 7.30
4. CC(C)c1c(F)cccc1-c1ncc2c(n1)n(Cc1ccc(-n3cccn3)cc1)c(=O)n2C [Compound I-8] :: > 7.30

Consider the compound shown here: CC(C)c1ccccc1-c1ncc2[nH]c(=O)n([C@H](C)c3ccc(-c4nc(C(F)(F)F)cn4C)cc3)c2n1 [Compound I-214] What is its recorded pIC50?
> 7.30

Which pIC50 is reported for this compound? CC(=O)N1CCN(C(=O)c2ccc(Cn3c(=O)[nH]c4cnc(-c5ccccc5C(C)C)nc43)cc2)CC1 [Compound I-383]
5.70 to 6.70

Bench note: what pIC50 did Cc1nnc(-c2ccc(Cn3c(=O)[nH]c4cnc(-c5cccc(F)c5C(C)C)nc43)cc2)o1 [Compound I-189] show?
> 7.30

Need pIC50 of Cc1cc(C(=O)N(C)c2ccc(Cn3c(=O)n(C)c4cnc(-c5ccccc5C(C)C)nc43)cc2)n[nH]1 [Compound I-470] , thanks.
< 5.70

* * *

SUBJECT_OF_TEST: USP1 (construct USP1 (I-785, GG670, 671AA)/UAF1 (I-677)-Flag) (Homo sapiens (Human), UniProt O94782, G670A/G671A)
TEST_DESCRIPTION: Ubiquitin-Rhodamine 110 assay for USP1 activity
CONDITION_DETAILS: USP1/UAF1 25 pM, Ub-Rh110 25 nM, 30 min preincubation
Recorded IC50, one value per entry.

1) CCN(C)c1ncccc1-c1ncc2[nH]c(=O)n(Cc3ccc(-c4nc(C(F)(F)F)cn4C)cc3)c2n1 :: < 50 nM

Item under review: CC(C)c1ccccc1-c1ncc2[nH]c(=O)n(Cc3ccc(C(=O)NCc4ccc(F)cc4)cc3)c2n1 . Reported IC50?
50 to 200 nM

Quick check: IC50 of CC(C)c1ncccc1-c1ncc2c(n1)n([C@H](C)c1ccc(-c3nc(C(F)(F)F)cn3C)cc1)c(=O)n2C ?
< 50 nM

// IC50 lookup, key: Cc1cnnn1-c1ccc(Cn2c(=O)[nH]c3cnc(-c4ccccc4C(C)C)nc32)cc1
< 50 nM

Return reported IC50; argument: COCCNC(=O)c1ccc(Cn2c(=O)[nH]c3cnc(-c4ccccc4C(C)C)nc32)cc1
200 to 2000 nM

Quick one: IC50 of CC(C)c1ccccc1-c1ncc2[nH]c(=O)n(Cc3ccc(C#N)cc3)c2n1 ?
200 to 2000 nM

Quick one: IC50 for CCOCCNc1ncccc1-c1ncc2[nH]c(=O)n(Cc3ccc(-c4nc(C(F)(F)F)cn4C)cc3)c2n1 ?
< 50 nM

For CC(C)c1ccccc1-c1ncc2[nH]c(=O)n(Cc3ccc(-n4cncn4)cc3)c2n1 , what is its reported IC50?
> 2000 nM

Which value of IC50 has been reported for CC(C)c1ccccc1-c1ncc2[nH]c(=O)n(Cc3ccc(-c4ncc(C(F)(F)F)n4C)cc3)c2n1 in the records?
< 50 nM
